# Experiment description: chemical genetic growth profiling, strain panel (AID 1159580);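 note: tested at 20 µM; growth read once vehicle control cultures reached saturation at 30 °C; 1 = growth at the plate median or of vehicle wells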
# Experimental conditions: S. cerevisiae deletion strains, growth OD, locus YBR231C, strain swc5, stronger effect = lower value
Screen size: about 5,500 compounds; about 2,000 (36%) were called active. Not shown: some 18% with an inconclusive outcome. The list shows a part of the results.
Kindly apply the following: MET if normalized growth is less than 1, NOT MET in every other case.

- Given smiles: "O=c1cc(-c2cccc(O)c2)oc2ccc(O)cc12"
  Class assignment: "MET"
- Given smiles: "O=c1cc(-c2ccc(O)c(O)c2)oc2ccccc12"
  Class assignment: "MET"
- Given smiles: "Nc1nnc(-c2cccc(Cl)c2Cl)c(N)n1"
  Class assignment: "NOT MET"

----------
# Experiment description: chemical genetic growth profiling, strain panel (AID 1159580)
# Experimental conditions: S. cerevisiae deletion strains, growth OD, locus YMR231W, strain pep5, stronger effect = lower value
Hit rate of the full screen: of about 5,500 compounds, about 2,000 (36%) were called active. Another 18% or so got no clear call; they are omitted. The list shows a part of the results.
Experimental endpoint: normalized growth

- Compound: "CC(=O)CC(c1ccccc1)c1c(O)c2ccccc2oc1=O (configuration not stated)"
  Recorded measurement: 1
- Compound: "O=c1c(-c2cc(O)c(O)c(O)c2)coc2cc(O)c(O)c(O)c12"
  Recorded measurement: 0.821
- Compound: "COc1cc2cc[n+]3cc4c(OC)c(OC)ccc4cc3c2cc1OC"
  Recorded measurement: 0.988
- Compound: "CN(C)CCC=C1c2ccccc2CCc2ccccc21"
  Recorded measurement: 0.987
- Compound: "O=C(O)c1cc(=O)c2ccccc2o1"
  Recorded measurement: 0.949
- Compound: "COc1c(O)cccc1O"
  Recorded measurement: 1
- Compound: "O=c1oc2ccccc2c(O)c1Cc1c(O)c2ccccc2oc1=O"
  Recorded measurement: 1
- Compound: "CN(C)CC/C=C1/c2ccccc2COc2ccccc21"
  Recorded measurement: 1.03
- Compound: "CC[N+]1(C)CCCC(OC(=O)C(O)(c2ccccc2)c2ccccc2)C1 (configuration not stated)"
  Recorded measurement: 1.03
- Compound: "CNCCC=C1c2ccccc2CCc2ccccc21"
  Recorded measurement: 0.974
- Compound: "O=C(O)c1nc2cc(Cl)c(Cl)cc2[nH]c1=O"
  Recorded measurement: 1.02
- Compound: "CCN(CC)CCNc1ccc(CO)c2sc3ccccc3c(=O)c12"
  Recorded measurement: 1.01
- Compound: "CC(=O)Oc1ccc(-c2cc(=O)c3c(OC(C)=O)cc(OC(C)=O)cc3o2)cc1"
  Recorded measurement: 0.975
- Compound: "COc1ccc(-c2cc(=O)c3c(OC(C)=O)cc(OC(C)=O)cc3o2)cc1"
  Recorded measurement: 0.994
- Compound: "[N-]=[N+]=CC(=O)OCC(N)C(=O)O (configuration not stated)"
  Recorded measurement: 1
- Compound: "O=c1[nH]c2cc(Cl)c(Cl)cc2[nH]c1=O"
  Recorded measurement: 0.996
- Compound: "COc1ccc2cc3[n+](cc2c1OC)CCc1cc2c(cc1-3)OCO2"
  Recorded measurement: 0.995
- Compound: "COc1cc2c3cc1Oc1cc(ccc1O)C[C@@H]1c4c(cc(OC)c(O)c4Oc4ccc(cc4)C[C@@H]3N(C)CC2)CC[N+]1(C)C"
  Recorded measurement: 0.993
- Compound: "CC(=O)Oc1cc(-c2coc3cc(OC(C)=O)c(OC(C)=O)c(OC(C)=O)c3c2=O)cc(OC(C)=O)c1OC(C)=O"
  Recorded measurement: 0.924
- Compound: "CC1(C)O[C@@H]2CC3C4CCC5=CC(=O)C=C[C@]5(C)[C@@]4(F)[C@@H](O)C[C@]3(C)[C@]2(C(=O)CO)O1 (some centres not stated)"
  Recorded measurement: 0.998
- Compound: "COc1cc2c(cc1OC)-c1cc3ccc(OC)c(OC)c3c[n+]1CC2"
  Recorded measurement: 1
- Compound: "COC(=O)C1=C(C)NC(C)=C(C(=O)OCCN(C)Cc2ccccc2)C1c1cccc([N+](=O)[O-])c1 (configuration not stated)"
  Recorded measurement: 0.998

----------
# Experiment description: chemical genetic growth profiling, strain panel (AID 1159580);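 note: tested at 20 µM; growth read once vehicle control cultures reached saturation at 30 °C; 1 = growth at the plate median or of vehicle wells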
# Experimental conditions: S. cerevisiae deletion strains, growth OD, locus YIR030C, strain dcg1, stronger effect = lower value
Screen size: about 5,500 compounds; about 2,000 (36%) were called active. About 18% were inconclusive and are not listed. The list shows a part of the results.
Kindly apply the following: Fulfilled if normalized growth is less than 1, Not fulfilled in every other case.

- Molecule: "O=c1c2ccccc2[se]n1-c1ccccc1"
  Class assignment: "Fulfilled"
- Molecule: "O=c1[nH]c2cc(Cl)c(Cl)cc2[nH]c1=O"
  Class assignment: "Not fulfilled"
- Molecule: "COc1ccc(-c2cc(=O)c3ccccc3o2)cc1"
  Class assignment: "Fulfilled"
- Molecule: "ClC(Cl)=C(c1ccc(Cl)cc1)c1ccc(Cl)cc1"
  Class assignment: "Fulfilled"
- Molecule: "Cc1cc(=O)c2c(O)c3c(cc2o1)OCC(C)CC3 (centres undefined)"
  Class assignment: "Fulfilled"
- Molecule: "CC(C)Oc1ccc2c(=O)cc(-c3ccccc3)oc2c1"
  Class assignment: "Fulfilled"
- Molecule: "N[C@@H]1CONC1=O"
  Class assignment: "Not fulfilled"
- Molecule: "Cc1cc(=O)c2c(O)c3c(cc2o1)OC(C)(C)CC3"
  Class assignment: "Fulfilled"
- Molecule: "COc1ccc(-c2cc(=O)c3c(OC)cccc3o2)cc1"
  Class assignment: "Not fulfilled"
- Molecule: "CC(=O)O.CC(=O)O.[Cd]"
  Class assignment: "Fulfilled"
- Molecule: "C[C@@H]1CC[C@@]2(OC1)OC1C(O)C3C4CC[C@H]5C[C@H](O[C@@H]6O[C@H](CO)[C@H](O[C@@H]7O[C@H](CO)[C@@H](O)[C@H](O[C@@H]8OC[C@@H](O)[C@H](O)[C@H]8O)[C@H]7O[C@@H]7O[C@H](CO)[C@H](O)[C@H](O[C@@H]8O[C@H](CO)[C@@H](O)[C@H](O)[C@H]8O)[C@H]7O)[C@H](O)[C@H]6O)[C@H](O)C[C@]5(C)C4CC[C@]3(C)C1[C@@H]2C (some centres undefined)"
  Class assignment: "Fulfilled"
- Molecule: "COc1ccc(C(=O)/C=C/c2ccccc2)cc1"
  Class assignment: "Fulfilled"

----------
// reported normalized growth per item
# Experiment description: chemical genetic growth profiling, strain panel (AID 1159580);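 note: tested at 20 µM; growth read once vehicle control cultures reached saturation at 30 °C; 1 = growth at the plate median or of vehicle wells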
# Experimental conditions: S. cerevisiae deletion strains, growth OD, locus YCR088W, strain abp1, stronger effect = lower value
Among all 5,500 compounds or so, about 2,000 (36%) were called active. Roughly 18% stayed inconclusive and do not appear here. The list shows a part of the results.
Experimental endpoint: normalized growth

- Compound: "S=c1ccss1"
  Recorded measurement: "1 (inactive)"
- Compound: "CC(=O)[C@H]1CCC2C3CC=C4C[C@@H](O)CC[C@]4(C)C3CC[C@@]21C (stereo not given in full)"
  Recorded measurement: "1.02 (inactive)"
- Compound: "CC(=O)OCC(=O)[C@H]1CCC2C3CC=C4C[C@@H](O)CC[C@]4(C)C3CC[C@@]21C (stereo not given in full)"
  Recorded measurement: "0.965 (inactive)"
- Compound: "O=C1CC[C@]23C=CC(=O)NCCCCNCCCNC(=O)/C=C/c4ccc(c2c4)O[C@@H]3C1"
  Recorded measurement: "1.02 (inactive)"
- Compound: "CCC(CCC(C)[C@H]1CCC2C3CC=C4C[C@@H](O)CC[C@]4(C)C3CC[C@@]21C)C(C)C (stereo not given in full)"
  Recorded measurement: "1.02 (inactive)"

----------
# Experiment description: chemical genetic growth profiling, strain panel (AID 1159580);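 note: tested at 20 µM; growth read once vehicle control cultures reached saturation at 30 °C; 1 = growth at the plate median or of vehicle wells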
# Experimental conditions: S. cerevisiae deletion strains, growth OD, locus YKL067W, strain YNK1, stronger effect = lower value
The campaign covered roughly 5,500 compounds. About 2,000 (36%) were called active. Roughly 18% stayed inconclusive and do not appear here. The list shows a part of the results.
// reported normalized growth per item

- Molecule: "O=C(CSCc1nc(-c2ccc(Cl)cc2)cs1)N/N=C\\c1cccs1"
  normalized growth: "0.932 (inactive)"
- Molecule: "Cc1cc(C(=O)N(c2ccccc2)C(C)C2CC2)c(Cl)cc1Cl (stereo unspecified)"
  normalized growth: "0.955 (inactive)"
- Molecule: "C#Cc1cccc(N=Cc2cc(Cl)cc(Br)c2O)c1"
  normalized growth: "0.109 (active)"
- Molecule: "CN(C(=O)N(C)c1ccc(Cl)cc1C(=O)c1ccccc1Cl)c1ccc(Cl)cc1C(=O)c1ccccc1Cl"
  normalized growth: "0.525 (active)"
- Molecule: "CC(C)(C)c1csc(NC(=O)Nc2ccc(Cl)cc2)n1"
  normalized growth: "0.732 (active)"
- Molecule: "O=C1c2ccccc2O[C@@H](c2ccccc2)[C@@H]1NC1CCCCC1"
  normalized growth: "0.903 (inactive)"
- Molecule: "N=c1ccc2nc3c(Cl)c4c(c(Cl)c3oc-2c1S(=O)(=O)O)Nc1ccc(N)c(S(=O)(=O)O)c1O4"
  normalized growth: "1.01 (inactive)"
- Molecule: "CC(C)(C)c1csc(NC(=O)c2ccc(Cl)cc2Cl)n1"
  normalized growth: "0.939 (inactive)"
- Molecule: "Cc1nc(-c2ccc(C(F)(F)F)cn2)[nH]c(=O)c1Cl"
  normalized growth: "0.857 (inactive)"
- Molecule: "COc1cc(NC(=S)Nc2ccccc2OC(F)(F)F)cc(C(F)(F)F)c1"
  normalized growth: "0.926 (inactive)"
- Molecule: "O=C1Nc2ccccc2/C1=N/N=C\\c1cc(Br)cc(Br)c1O"
  normalized growth: "0.194 (active)"
- Molecule: "Cc1csc2ncnc(N/N=C\\c3ccccc3Cl)c12"
  normalized growth: "0.947 (inactive)"
- Molecule: "N#Cc1c(Br)cnn1Cc1cc(C(F)(F)F)cc(C(F)(F)F)c1"
  normalized growth: "0.895 (inactive)"
- Molecule: "CC(C)(C)c1cc2nc(C(F)(F)F)cc(NNC(=O)c3ccc(Cl)cc3)n2n1"
  normalized growth: "1 (inactive)"
- Molecule: "C/C(=N/Nc1nc(C(C)(C)C)cs1)c1ccc(Cl)c(Cl)c1"
  normalized growth: "0.949 (inactive)"
- Molecule: "COc1ccc(C2CC(c3ccccc3)=Nc3ccccc3S2)cc1OC (stereo unspecified)"
  normalized growth: "0.956 (inactive)"
- Molecule: "CCC(C)COC(=O)/C=C/c1ccc(N=Cc2ccc(OC)cc2)cc1 (stereo unspecified)"
  normalized growth: "0.873 (inactive)"
- Molecule: "CC(C)(C)c1csc(NNC(=O)c2ccc(Cl)cc2)n1"
  normalized growth: "0.885 (inactive)"
- Molecule: "O=C1c2ccccc2O[C@@H](c2ccccc2)[C@@H]1NCc1ccccc1"
  normalized growth: "0.89 (inactive)"
- Molecule: "CC(C)CSc1nnc(CSCc2nc(-c3ccc(Cl)cc3)cs2)n1C"
  normalized growth: "0.95 (inactive)"
- Molecule: "O=C1Nc2ccccc2/C1=N/N=C\\c1ccccc1Cl"
  normalized growth: "0.896 (inactive)"
